Data origin, for the record: paper PMC12095047

# SYSTEM TESTED: PIN8 (Arabidopsis thaliana)
# Construct: made in house
# Sequence (Q9LFP6 1-367): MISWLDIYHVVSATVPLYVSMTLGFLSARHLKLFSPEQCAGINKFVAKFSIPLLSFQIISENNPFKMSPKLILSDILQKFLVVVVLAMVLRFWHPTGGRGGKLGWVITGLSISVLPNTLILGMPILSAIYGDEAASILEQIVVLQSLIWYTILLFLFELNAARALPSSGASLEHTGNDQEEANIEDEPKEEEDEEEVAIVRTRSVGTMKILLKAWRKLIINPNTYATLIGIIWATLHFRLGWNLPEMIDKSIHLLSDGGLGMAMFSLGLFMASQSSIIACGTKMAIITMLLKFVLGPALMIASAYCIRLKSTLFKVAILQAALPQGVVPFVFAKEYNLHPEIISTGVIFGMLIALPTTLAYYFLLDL
# PROTOCOL DETAILS: SSM electrophysiology, KD by inhibition of the NPA binding current
# SETUP CONDITIONS: 500 µM substrate; 100 µM NPA; individual sensors; read-out: Rel. Inhibition of NPA peak currents
READOUT KIND: inhibition at 500 µM (%)

1) O=C(O)COc1ccc(Cl)cc1 | 58.6
2) O=C(O)COc1ccccc1Cl | 94.3
3) O=C(O)CCc1ccc(Cl)cc1Cl | 77.9
4) Cc1ccccc1OCC(=O)O | 74.7
5) Cc1ccc(OCC(=O)O)cc1 | 40.8
6) Cc1ccc(OCC(=O)O)c(C)c1 | 78.8
